Cited source: paper PMC8597757

measurement.description: Single-dose plasma pharmacokinetics of MK-8507 (suspension, study 1; tablet, study 2)
Type: in vivo
details: human, po, 1200 mg, single oral dose 1,200 mg, tablet, fasted, n=6, read-out: Cmax (geometric mean [95% CI])
parameter: Cmax (µM)
Record the value in µM, omitting the unit from your answer.

The recorded Cmax for N#Cc1cc(Cl)cc(Oc2c(C(F)(F)F)ncn(Cc3cc(C(F)(F)F)c(=O)[nH]n3)c2=O)c1 is 23.6

====

measurement.description: Single-dose plasma pharmacokinetics of MK-8507 (suspension, study 1; tablet, study 2)
Type: in vivo
details: human, po, 400 mg, single oral dose 400 mg, suspension, fasted, n=6, read-out: Cmax (geometric mean [95% CI])
parameter: Cmax (µM)
Kindly provide the numeric value in µM only, without the unit symbol.

Just so you know, measured Cmax for N#Cc1cc(Cl)cc(Oc2c(C(F)(F)F)ncn(Cc3cc(C(F)(F)F)c(=O)[nH]n3)c2=O)c1 came out at 11.5

====

measurement.description: Multiple-dose (once weekly for 3 weeks) plasma pharmacokinetics of MK-8507 tablet
Assay type: in vivo, human
details: human, plasma, oral, 400 mg, 100, 200, 400 mg tablet once weekly, range across doses; read-out: geometric mean apparent t1/2
parameter: half-life

The recorded half-life for N#Cc1cc(Cl)cc(Oc2c(C(F)(F)F)ncn(Cc3cc(C(F)(F)F)c(=O)[nH]n3)c2=O)c1 is 67 to 74 h

====

measurement.description: Single-dose plasma pharmacokinetics of MK-8507 (suspension, study 1; tablet, study 2)
Assay type: in vivo
details: human, po, 100 mg, single oral dose 100 mg, suspension, fasted, n=6, read-out: AUC0-∞ (geometric mean [95% CI])
parameter: AUC(0-inf) (µM·h)
Supply the numeric figure in µM·h, leaving out any unit text.

AUC(0-inf) reading for N#Cc1cc(Cl)cc(Oc2c(C(F)(F)F)ncn(Cc3cc(C(F)(F)F)c(=O)[nH]n3)c2=O)c1 : 175

====

measurement.description: Food effect assessment (100 mg suspension, high-fat meal vs fasted)
Type: in vivo, human
details: human; single oral dose 100 mg (fed), suspension, following a high-fat meal, plasma, n=6; read-out: Apparent terminal t½ (geometric mean [%GVC]) (converted)
parameter: half-life (h)
Just the number please, in h, no unit attached.

N#Cc1cc(Cl)cc(Oc2c(C(F)(F)F)ncn(Cc3cc(C(F)(F)F)c(=O)[nH]n3)c2=O)c1 [MK-8507] has a reported half-life of 72.6

====

measurement.description: Single-dose plasma pharmacokinetics of MK-8507 (suspension, study 1; tablet, study 2)
Assay type: in vivo
details: human, po, 1200 mg, single oral dose 1,200 mg, tablet, fasted, n=6, read-out: AUC0–168 (geometric mean [95% CI])
parameter: AUC(0-t) (µM·h)
Give just the number in µM·h; leave the unit off.

The molecule N#Cc1cc(Cl)cc(Oc2c(C(F)(F)F)ncn(Cc3cc(C(F)(F)F)c(=O)[nH]n3)c2=O)c1 showed AUC(0-t) equal to 1570

====

measurement.description: Single-dose plasma pharmacokinetics of MK-8507 (suspension, study 1; tablet, study 2)
Assay type: in vivo
details: human, po, 1200 mg, single oral dose 1,200 mg, tablet, fasted, n=6, read-out: C168hr (geometric mean [95% CI])
parameter: concentration at 168 h (µM)
Could you give me the number in µM? Just the number is fine.

Lab note: measured concentration at 168 h of N#Cc1cc(Cl)cc(Oc2c(C(F)(F)F)ncn(Cc3cc(C(F)(F)F)c(=O)[nH]n3)c2=O)c1 was 3.59
